These measurements were taken from patent US5220017A.

# SYSTEM NAME: CCK receptor (rat pancreas) (Rattus norvegicus, UniProt P30551)
# Construct: The whole pancreas was dissected free of fat tissue and was homogenized
# Sequence (P30551 1-444): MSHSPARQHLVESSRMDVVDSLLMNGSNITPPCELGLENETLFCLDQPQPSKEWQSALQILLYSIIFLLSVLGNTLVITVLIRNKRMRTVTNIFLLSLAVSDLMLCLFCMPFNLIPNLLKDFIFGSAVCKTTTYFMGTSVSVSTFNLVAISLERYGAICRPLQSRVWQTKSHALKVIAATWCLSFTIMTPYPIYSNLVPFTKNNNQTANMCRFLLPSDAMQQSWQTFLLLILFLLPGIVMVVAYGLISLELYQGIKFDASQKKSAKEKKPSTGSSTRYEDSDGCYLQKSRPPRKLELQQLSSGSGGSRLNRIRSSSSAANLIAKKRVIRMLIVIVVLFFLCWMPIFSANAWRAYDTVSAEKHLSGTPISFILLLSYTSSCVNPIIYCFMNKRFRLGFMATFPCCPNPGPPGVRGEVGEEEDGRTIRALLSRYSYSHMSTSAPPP
# RUN DESCRIPTION: CCK Receptor Binding (Pancreas), 125I-CCK-8 displacement
Recorded IC50 by entry

>  <COMPOUND>
Cc1cccc(N(CCC(=O)O)C(=O)NC2N=C(c3ccccc3)c3ccccc3N(C)C2=O)c1 (centres unmarked)

>  <IC50>
> 3 µM

$$$$

Now look at this entry.
Exercise: Name the value of IC50 reported for Cc1cccc(NC(=O)N(CCC(=O)O)C2N=C(c3ccccc3)c3ccccc3N(C)C2=O)c1 (centres unmarked) when tested on CCK receptor (rat pancreas) (Rattus norvegicus, UniProt P30551).
Key: > 3 µM
